// provenance: patent US20090022728A1

Please provide measured koff for the entries that follow.
# system-tested: T1, biotinylated Aβ1-40 peptide (biotinylated (N-biotinylated in Example 7))
# T1 construct: captured on streptavidin (SA) chip; also called Biotinylated Aβ peptide 1-40; Aβ1-40 on SA chip
# T1 sequence (peptide, as listed by the source): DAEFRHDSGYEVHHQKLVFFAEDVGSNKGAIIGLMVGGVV
# test: SPR, Fab over Aβ1-40 on SA chip
Your answer should be a plain number; it is taken to be in s⁻¹.

Query: Record request: koff value, item 9TL variant W5 Fab (Fab, V domains shown, Fab; human IgG2 CH1 and kappa CL) VH: QVQLVQSGAEVKKPGASVKVSCKASGYYTEAYYIHWVRQAPGQGLEWMGRIDPATGNTKYAPRLQDRVTMTRDTSTSTVYMELSSLRSEDTAVYYCASLYSLPVYWGQGTTVTVSS VL: DVVMTQSPLSLPVTLGQPASISCKSSQSLLHSDAATYLNWFQQRPGQSPRRLIYQISRLDPGVPDRFSGSGSGTDFTLKISRVEAEDVGVYYCLQGTHYPVTFGQGTRLEIKR
Reply: 0.004

Query: Thanks! And 9TL variant M12 Fab (Fab, V domains shown, Fab; human IgG2 CH1 and kappa CL) VH: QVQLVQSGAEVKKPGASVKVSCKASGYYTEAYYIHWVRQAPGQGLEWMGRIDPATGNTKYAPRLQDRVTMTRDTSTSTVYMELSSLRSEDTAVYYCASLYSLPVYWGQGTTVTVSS VL: DVVMTQSPLSLPVTLGQPASISCKSSQSLLYSDAKTYLNWFQQRPGQSPRRLIYQISRLDPGVPDRFSGSGSGTDFTLKISRVEAEDVGVYYCLQTTHYPVLFGQGTRLEIKR ?
Reply: 0.0033

Query: Can you check 9TL variant M4 Fab (Fab, V domains shown, Fab; human IgG2 CH1 and kappa CL) VH: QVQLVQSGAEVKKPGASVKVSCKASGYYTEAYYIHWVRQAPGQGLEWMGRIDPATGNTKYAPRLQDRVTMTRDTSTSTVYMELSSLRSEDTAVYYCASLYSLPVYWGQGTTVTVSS VL: DVVMTQSPLSLPVTLGQPASISCKSSQSLLYSDAKTYLNWFQQRPGQSPRRLIYQISRLDPGVPDRFSGSGSGTDFTLKISRVEAEDVGVYYCFQGTHYPVLFGQGTRLEIKR next?
Reply: 0.000995

Query: Then this binder: 9TL variant M13 Fab (Fab, V domains shown, Fab; human IgG2 CH1 and kappa CL) VH: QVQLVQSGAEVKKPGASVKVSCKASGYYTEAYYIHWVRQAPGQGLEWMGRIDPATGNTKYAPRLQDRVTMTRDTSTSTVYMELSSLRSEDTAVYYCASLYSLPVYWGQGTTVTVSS VL: DVVMTQSPLSLPVTLGQPASISCKSSQSLLYSDAKTYLNWFQQRPGQSPRRLIYQISRLDPGVPDRFSGSGSGTDFTLKISRVEAEDVGVYYCLQGSHYPVLFGQGTRLEIKR
Reply: 0.00039

Query: Entry to check: 9TL variant M55 Fab (Fab, V domains shown, Fab; human IgG2 CH1 and kappa CL) VH: QVQLVQSGAEVKKPGASVKVSCKASGYYTEAYYIHWVRQAPGQGLEWMGRIDPATGNTKYAPRLQDRVTMTRDTSTSTVYMELSSLRSEDTAVYYCASLYSLPVIWGQGTTVTVSS VL: DVVMTQSPLSLPVTLGQPASISCKSSQSLLYSDAKTYLNWFQQRPGQSPRRLIYQISRLDPGVPDRFSGSGSGTDFTLKISRVEAEDVGVYYCLQGTHYPVLFGQGTRLEIKR
Reply: 0.003

Query: What do we get for 9TL variant M15 Fab (Fab, V domains shown, Fab; human IgG2 CH1 and kappa CL) VH: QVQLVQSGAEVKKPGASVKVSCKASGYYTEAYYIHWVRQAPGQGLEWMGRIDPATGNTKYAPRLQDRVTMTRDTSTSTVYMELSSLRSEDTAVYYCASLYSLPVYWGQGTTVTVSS VL: DVVMTQSPLSLPVTLGQPASISCKSSQSLLYSDAKTYLNWFQQRPGQSPRRLIYQISRLDPGVPDRFSGSGSGTDFTLKISRVEAEDVGVYYCLQGTHPPVLFGQGTRLEIKR ?
Reply: 0.00067

Query: Request: 9TL variant M52 Fab (Fab, V domains shown, Fab; human IgG2 CH1 and kappa CL) VH: QVQLVQSGAEVKKPGASVKVSCKASGYYTEAYYIHWVRQAPGQGLEWMGRIDPATGNTKYAPRLQDRVTMTRDTSTSTVYMELSSLRSEDTAVYYCASLYSLPVFWGQGTTVTVSS VL: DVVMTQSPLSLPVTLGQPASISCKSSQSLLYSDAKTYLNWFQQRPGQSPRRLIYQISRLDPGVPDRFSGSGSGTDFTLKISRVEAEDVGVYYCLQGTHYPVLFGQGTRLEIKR
Reply: 0.0013

Query: Try this binder too: 9TL variant M1 Fab (Fab, V domains shown, Fab; human IgG2 CH1 and kappa CL) VH: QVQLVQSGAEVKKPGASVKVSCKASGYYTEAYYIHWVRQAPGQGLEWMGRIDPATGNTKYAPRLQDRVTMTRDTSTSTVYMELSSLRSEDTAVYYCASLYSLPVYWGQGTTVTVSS VL: DVVMTQSPLSLPVTLGQPASISCKSSQSLLYSDAKTYLNWFQQRPGQSPRRLIYQISRLDPGVPDRFSGSGSGTDFTLKISRVEAEDVGVYYCMQGTHYPVLFGQGTRLEIKR
Reply: 0.00086

Query: Another binder to check: 9TL variant M21 Fab (Fab, V domains shown, Fab; human IgG2 CH1 and kappa CL) VH: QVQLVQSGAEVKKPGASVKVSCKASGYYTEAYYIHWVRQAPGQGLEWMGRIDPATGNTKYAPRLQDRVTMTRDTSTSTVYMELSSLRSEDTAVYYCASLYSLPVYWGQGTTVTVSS VL: DVVMTQSPLSLPVTLGQPASISCKSSQSLLYSDAKTYLNWFQQRPGQSPRRLIYQISRLDPGVPDRFSGSGSGTDFTLKISRVEAEDVGVYYCLQGTHEPVLFGQGTRLEIKR
Reply: 0.005

Query: Likewise for 9TL variant M17 Fab (Fab, V domains shown, Fab; human IgG2 CH1 and kappa CL) VH: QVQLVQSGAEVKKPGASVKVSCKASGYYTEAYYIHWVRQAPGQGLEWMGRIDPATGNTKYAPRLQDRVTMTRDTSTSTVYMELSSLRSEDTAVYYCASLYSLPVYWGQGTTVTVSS VL: DVVMTQSPLSLPVTLGQPASISCKSSQSLLYSDAKTYLNWFQQRPGQSPRRLIYQISRLDPGVPDRFSGSGSGTDFTLKISRVEAEDVGVYYCLQGTHWPVLFGQGTRLEIKR ?
Reply: 0.001
